System: ACHN
Experiment: NCI tumour cell line growth inhibition, 48 h
Active and inactive are the calls of the source. Rule as the data show it: active = GI50 up to about 1.1 µM and inactive = higher.
Outcomes: t for active, f for inactive

- COMPOUND: "O=C(c1c2c(cc3c1CC1(Cc4cc5c(cc4C1)CCCC5)C3)CCCC2)C(Br)Br"
  CLASSIFICATION: "f"
- COMPOUND: "Cc1nc2ccc(Br)cc2c(=O)n1-c1ccc(N)cc1"
  CLASSIFICATION: "f"
- COMPOUND: "Cc1nn(C(=O)c2ccccc2O)c2c1C(c1ccc(O)cc1)SC(=N)N2 (stereo not given)"
  CLASSIFICATION: "t"
- COMPOUND: "COc1cc(OC)c(C2(c3c(OC(C)C)c(=O)c3=O)SCCCS2)cc1OC"
  CLASSIFICATION: "f"
- COMPOUND: "CCCCCCCCCCCCCC[C@@H](O)[C@H]1CC[C@H]([C@H]2CC[C@H]([C@H](O)CCCCCC[C@@H](O)CC3=C[C@H](C)OC3=O)O2)O1"
  CLASSIFICATION: "f"
- COMPOUND: "COc1cc(C2=C(C)[C@@H]3CN(CC=C3c3ccc(Cl)cc3)C2)c(S(=O)(=O)O)cc1OC"
  CLASSIFICATION: "f"
- COMPOUND: "O=CN1CCN(C(=O)c2ccc(Cl)c(Cl)c2)C1=S"
  CLASSIFICATION: "f"
- COMPOUND: "O=Cc1ccccc1B(O)O"
  CLASSIFICATION: "f"
- COMPOUND: "NC(=O)OCC(COc1ccc(Cl)cc1)OC(=O)c1ccccc1Cl (stereo not given)"
  CLASSIFICATION: "f"
- COMPOUND: "CCN(CCO)CC1CCCC2CCCCC21 (stereo not given)"
  CLASSIFICATION: "f"

---

System: RXF 393
Assay: NCI tumour cell line growth inhibition, 48 h
Active and inactive are the calls of the source. Cut-off read from the data, not from the text of the source: active = GI50 up to about 1.1 µM and inactive = higher.
Labels: active, inactive

- COMPOUND: "CCCCCC(O)(CCCCC)CCCCCCCCC1=C(O)C(=O)c2ccc(=O)[nH]c2C1=O"
  CLASSIFICATION: "inactive"
- COMPOUND: "CO[C@H](c1ccccc1)[C@H](C)N(C)c1ccc2ccccc2c1C1=NC(C)(C)CO1"
  CLASSIFICATION: "inactive"
- COMPOUND: "OCCOCCN1CCN(CCCN2c3ccccc3Sc3ccc(C(F)(F)F)cc32)CC1"
  CLASSIFICATION: "inactive"
- COMPOUND: "COC(=O)c1cc2c3c(c1)Oc1cc(C(=O)OC)cc4c1C3c1c(cc(C(=O)OC)cc1O4)O2"
  CLASSIFICATION: "active"
- COMPOUND: "C=C(Br)CNC(=O)CCC(=O)NCC(=C)Br"
  CLASSIFICATION: "inactive"
- COMPOUND: "CCCC(=O)OC[n+]1cccc(-c2c(COC(=O)NC(C)C)c(COC(=O)NC(C)C)c3n2CCC3)c1"
  CLASSIFICATION: "inactive"
- COMPOUND: "C/C(CC(=O)Nc1cc(C)ccc1C)=N\\NC(=O)c1ccncc1"
  CLASSIFICATION: "inactive"
- COMPOUND: "CC1=C(C)C(=O)C(C2=CC(=O)C=CC2=O)=C(C2=CC(=O)C=CC2=O)C1=O"
  CLASSIFICATION: "inactive"
- COMPOUND: "CCCCCCCCNC(=O)C1=C(C)NC(C)=C(C(=O)NCCCCCCCC)C1"
  CLASSIFICATION: "inactive"
- COMPOUND: "COC(=O)Cc1cc2c(cc1C(=O)c1ccc(N)cc1)OCO2"
  CLASSIFICATION: "inactive"
- COMPOUND: "O=C1OC(=O)C([Se]c2ccccc2)=C1[Se]c1ccccc1"
  CLASSIFICATION: "inactive"
- COMPOUND: "COc1ccc(/C=C2/C(C)=NN(c3cccc(Cl)c3)/C2=N/c2nc3ccccc3s2)cc1"
  CLASSIFICATION: "inactive"
- COMPOUND: "CC(=O)OCCCCN1C(=O)CSc2ccccc21"
  CLASSIFICATION: "inactive"
- COMPOUND: "COc1ccc(C(=O)/C=C/c2ccc(OCC#N)cc2)cc1OC"
  CLASSIFICATION: "inactive"
- COMPOUND: "CC1CCc2sc3nc4n(c(=O)c3c2C1)CC(C)S4 (centres undefined)"
  CLASSIFICATION: "inactive"
- COMPOUND: "CC(C)CCCC(C)[C@H]1CC[C@H]2[C@@H]3CC[C@H]4C[C@@H](CCC=C(c5cc(Cl)c(O)c(C(=O)OC(C)C)c5)c5cc(Cl)c(O)c(C(=O)OC(C)C)c5)CC[C@]4(C)[C@H]3CC[C@]12C (some centres undefined)"
  CLASSIFICATION: "inactive"
- COMPOUND: "Cc1c(C(=O)CC(=O)C(=O)Nc2ccc(Cl)c(Cl)c2)[n+]([O-])c2ccccc2[n+]1[O-]"
  CLASSIFICATION: "inactive"
- COMPOUND: "O=C(C=P(c1ccccc1)(c1ccccc1)c1ccccc1)c1ccc(-c2cccc([N+](=O)[O-])c2)s1"
  CLASSIFICATION: "inactive"
- COMPOUND: "CC(C(=O)c1ccc(Cl)cc1)C1OC(=O)C(Cl)=C1Cl (centres undefined)"
  CLASSIFICATION: "inactive"
